We begin with a simple list: items and their reported OD 450 nm.
Biological target: T1, CEACAM1 antigen (Sino Biological, Inc.) (UniProt P13688 35-428)
T1 construct: Bought antigen, coated on the ELISA plate; construct not described; also called CEACAM1 (CD66a) antigen; CD66a
T1 sequence (looked up): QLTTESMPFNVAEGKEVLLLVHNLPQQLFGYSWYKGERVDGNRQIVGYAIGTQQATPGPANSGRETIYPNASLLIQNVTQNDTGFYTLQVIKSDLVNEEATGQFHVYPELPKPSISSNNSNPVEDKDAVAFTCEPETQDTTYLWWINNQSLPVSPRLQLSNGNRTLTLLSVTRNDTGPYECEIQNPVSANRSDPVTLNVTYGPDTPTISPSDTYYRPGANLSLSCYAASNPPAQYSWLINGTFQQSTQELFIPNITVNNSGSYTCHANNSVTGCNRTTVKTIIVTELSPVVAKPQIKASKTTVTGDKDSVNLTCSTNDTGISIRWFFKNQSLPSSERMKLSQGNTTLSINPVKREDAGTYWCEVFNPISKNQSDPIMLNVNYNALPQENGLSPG
Assay: ELISA, CEACAM1 coated 100 ng/well, antibody at 13.72 ng/ml
Use OD 450 nm as the unit, but write only the number.

Need OD 450 nm, item recombinant humanized anti-CD66c antibody Protein ID 3058 (Vk8 + VH11) (antibody, human IgG1, V domains shown, also called hu 3058; #86) VH: QVQLVQSGAEVKKPGASVKISCKASGYSFTDYTMHWVKQAPGQNLEWIGLINPFGGSTSYAQKFKGRVTMTRDTSTNTAYMELSRLRSDDTAVYYCVRGDPVRHYYALAYWGQGTLVTVSS VL: DIQMTQSPSTLSASVGDRVTITCRASENVYGTLNWYQRKPGKAPKLLIYGATNLADGMPSRFSGSGSGTEYTLTISSLQPDDFATYYCQNVLSAPYTFGGGTKLEIK
0.05

Entry under review: anti-CD66c chimeric antibody 8F5 (antibody, human IgG1, V domains shown, also called chimeric 8F5; chi 8F5) VH: EVQLQQSGPELVKPGASMKISCKASGYSFTDYTMNWVKQSHGKNLEWIGLINPFHGGTVSNQRFKVKATLTVDVSSNTAYMELLSLTSDDSAVYYCVRGDPVRHYYALAYWGQGTSVTVSS VL: DIQMTQSPASLSASVGETVTITCGASENVYGTLNWYQRKQGKSPQLLIYGATNLADGMSSRFSGSGSGRQYSLKISSLHPDDVATYYCQNVLSAPYTFGGGTKLEII . Reported OD 450 nm?
0.51

// lookup OD 450 nm for recombinant humanized anti-CD66c antibody Protein ID 3007 (Vk7 + VH6) (antibody, human IgG1, V domains shown, also called hu 3007; #43) VH: QVQLVQSGAEVKKPGASMKISCKASGYSFTDYTMNWVKQAPGQNLEWIGLINPFHGGTVSNQRFKVKATLTVDVSTNTAYMELSRLRSDDTAVYYCVRGDPVRHYYALAYWGQGTLVTVSS VL: DIQMTQSPSTLSASVGDRVTITCGASENVYGTLNWYQRKPGKAPKLLIYGATNLADGVPSRFSGSGSGTEYTLTISSLQPDDFATYYCQNVLSAPYTFGGGTKLEIK
0.46

Look up OD 450 nm: recombinant humanized anti-CD66c antibody Protein ID 3043 (Vk8 + VH6) (antibody, V domains shown, also called hu 3043; #71) VH: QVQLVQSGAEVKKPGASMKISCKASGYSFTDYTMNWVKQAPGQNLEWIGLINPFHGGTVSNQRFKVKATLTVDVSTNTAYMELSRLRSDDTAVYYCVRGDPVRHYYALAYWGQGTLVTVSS VL: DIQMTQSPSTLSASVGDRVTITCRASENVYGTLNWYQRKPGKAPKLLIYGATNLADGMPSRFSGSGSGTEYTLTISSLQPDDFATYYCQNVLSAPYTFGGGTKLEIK
0.43

Fill in the blank: the reported OD 450 nm of recombinant humanized anti-CD66c antibody Protein ID 2938 (Vk5 + VH7) (antibody, human IgG1, V domains shown, also called hu 2938) VH: QVQLVQSGAEVKKPGASMKISCKASGYSFTDYTMNWVRQAPGQGLEWIGLINPFHGGTVSNQRFKVKATLTVDVSTNTAYMELSRLRSDDTAVYYCVRGDPVRHYYALAYWGQGTLVTVSS VL: DIQMTQSPSTLSASVGDRVTITCGASENVYGTLAWYQRKPGKAPKLLIYGATNLADGVPSRFSGSGSGREYTLTISSLQPDDFATYYCQNVLSAPYTFGGGTKLEIK is ____.
0.06
